- Measured on: rat mGlu2/4 heterodimer (Rattus norvegicus, UniProt P31421+P31423)
- Run description: mGlu2/4 heterodimer PAM thallium flux assay
Experimental endpoint: pEC50
To interpret pEC50, take it as minus log10 of a concentration measured in moles per litre.

# pEC50 (compound: Cc1nc(-c2ccc(OCC(C)C)c(C#N)c2)sc1C(=O)O [compound 9, febuxostat] ) is 5.47

* * *

- Measured on: homodimeric mGlu4 (Homo sapiens, UniProt Q14833)
- Run description: mGlu4 Gqi5 calcium assay
pEC50: −log10 of the molar value.
Experimental endpoint: pEC50

Lab note: Cc1nc(-c2ccc(OCC(C)C)c(C#N)c2)sc1C(=O)O [compound 9, febuxostat] gave pEC50 of < 4.52
